MEASURE_NAME: melting point

Solved cases below.
- COMPOUND: "O=C1Nc2cc(Cl)ccc2C1(F)c1cc(Cl)ccc1OCC(F)(F)F (racemic)"
  OBSERVED_MEASUREMENT: "167 to 169 °C"
- COMPOUND: "O=C1Nc2cc(-c3ccc(C(F)(F)F)cc3)ccc2C1(F)c1cc(Cl)ccc1OCC(F)(F)F (racemic)"
  OBSERVED_MEASUREMENT: "103 to 105 °C"
- COMPOUND: "CCSc1ccc(Cl)cc1C1(F)C(=O)Nc2cc(C(F)(F)F)ccc21 (stereo not drawn)"
  OBSERVED_MEASUREMENT: "105 to 107 °C"
- COMPOUND: "O=C1Nc2cc(F)c(F)cc2C1(F)c1cc(Cl)ccc1OCC(F)(F)F (racemic)"
  OBSERVED_MEASUREMENT: "200 to 203 °C"
- COMPOUND: "O=C1Nc2cc(F)ccc2C1(F)c1cc(Cl)ccc1OCC(F)(F)F (racemic)"
  OBSERVED_MEASUREMENT: "200 to 202 °C"

Next, consider the following compound.
Summary for this compound, O=C1Nc2cc(CF)ccc2C1(F)c1cc(Cl)ccc1OCC(F)(F)F (racemic) : melting point is 150 to 151 °C

---

target: cloned mouse KCNQ2 (mKCNQ2) (Mus musculus); construct: expressed in transfected cells; host or cells: Xenopus oocytes injected with mKCNQ2 cRNA; assay: KCNQ oocyte two-electrode voltage clamp, KCNQ2-mediated outward current; format: cell-based; settings: at 20 μM; expressed as percent increase over KCNQ current in controls; Xenopus oocytes
Sequence (Q9Z351 whole entry): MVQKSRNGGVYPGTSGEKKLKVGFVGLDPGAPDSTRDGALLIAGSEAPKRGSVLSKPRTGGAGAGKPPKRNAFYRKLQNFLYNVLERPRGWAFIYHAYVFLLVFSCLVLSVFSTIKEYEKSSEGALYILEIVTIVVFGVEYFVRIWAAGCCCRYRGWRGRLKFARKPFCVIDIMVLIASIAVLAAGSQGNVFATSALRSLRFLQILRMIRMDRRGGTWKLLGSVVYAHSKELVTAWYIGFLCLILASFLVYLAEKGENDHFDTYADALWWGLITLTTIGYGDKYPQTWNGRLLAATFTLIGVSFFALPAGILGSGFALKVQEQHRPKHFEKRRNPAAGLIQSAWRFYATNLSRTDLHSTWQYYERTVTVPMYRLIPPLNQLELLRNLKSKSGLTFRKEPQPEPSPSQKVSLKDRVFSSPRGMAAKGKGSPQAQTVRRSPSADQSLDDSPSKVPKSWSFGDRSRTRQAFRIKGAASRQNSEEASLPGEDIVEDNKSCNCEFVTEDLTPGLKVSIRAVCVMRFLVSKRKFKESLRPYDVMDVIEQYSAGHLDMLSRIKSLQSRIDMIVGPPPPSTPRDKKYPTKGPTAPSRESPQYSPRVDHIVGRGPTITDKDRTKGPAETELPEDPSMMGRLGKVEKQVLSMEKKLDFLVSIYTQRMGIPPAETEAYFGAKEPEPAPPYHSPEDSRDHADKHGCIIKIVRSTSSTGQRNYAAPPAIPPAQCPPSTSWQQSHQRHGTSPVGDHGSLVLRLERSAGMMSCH
MEASURE_NAME: KCNQ2 Current

- COMPOUND: "O=C1Nc2cc(C(F)(F)F)ccc2C1(F)c1cc(Cl)ccc1OCCF (racemic)"
  MEASURE_NAME: "KCNQ2 Current"
  OBSERVED_MEASUREMENT: "+ (+ = 120-150%)"
- COMPOUND: "O=C1Nc2cc(F)c(F)cc2C1(F)c1cc(Cl)ccc1OCC(F)(F)F (racemic)"
  MEASURE_NAME: "KCNQ2 Current"
  OBSERVED_MEASUREMENT: "+ (+ = 120-150%)"
- COMPOUND: "O=C1Nc2cc(Cl)ccc2C1(F)c1cc(Cl)ccc1OCC(F)(F)F (single isomer, unassigned; (+)) [Example 12]"
  MEASURE_NAME: "KCNQ2 Current"
  OBSERVED_MEASUREMENT: "++ (++ = >150%)"
- COMPOUND: "O=C1Nc2cc(Cl)ccc2C1(F)c1cc(Cl)ccc1OCC(F)(F)F (racemic) [Example 11]"
  MEASURE_NAME: "KCNQ2 Current"
  OBSERVED_MEASUREMENT: "++ (++ = >150%)"

Origin of values: patent US6469042B1
